B1: MEF2-activating motif and SAP domain-containing transcriptional regulator, residues 170 to 204; numbered along this chain, Q6ZN01 (parent)
chain: LKLEELTVSELRQQLRLRGLPVSGTKSMLLERMRG

Variants of: B1
Assay: abundance fitness (aPCA) (normalised: wild type 0, dead -1); higher = more abundant; growth selection in yeast, the domain comes from the species named
Conditions: Homo sapiens
Form field: abundance fitness (one value per entry).
Lab note: jot the number down without any unit.

Recorded results for 8 variants are shown here.
- chain: "LKLEELTVSELRQQLRLRGLPVSGTKSMLLERMYG [R34Y]"
  assayValue: -0.316
- chain: "LKLEELTVSELRQQLRTRGLPVSGTKSMLLERMRG [L17T]"
  assayValue: -0.081
- chain: "LKLEELTVSELRQQLRLRGLPVSKTKSMLLERMRG [G24K]"
  assayValue: -1.25
- chain: "LKLEELTVSELRQQLRLRGLPVSGTKSPLLERMRG [M28P]"
  assayValue: -0.973
- chain: "LKLEELTVSWLRQQLRLRGLPVSGTKSMLLERMRG [E10W]"
  assayValue: -0.728
- chain: "LKLEPLTVSELRQQLRLRGLPVSGTKSMLLERMRG [E5P]"
  assayValue: -0.335
- chain: "LKLEELTVSELRQQLRLRGLPVWGTKSMLLERMRG [S23W]"
  assayValue: -0.883
- chain: "LKLEELTVSELRQQLRLRGLPVSGTKSMLLECMRG [R32C]"
  assayValue: -0.611

Q: Which value of abundance fitness has been reported for LKLEELTVSELRQQLRLRGLPVSRTKSMLLERMRG [G24R] in the records?
Ans: -0.867

Q: Which value of abundance fitness has been reported for LKLEELTVSELRQQLRLRGRPVSGTKSMLLERMRG [L20R] in the records?
Ans: -0.914

src = the Human Domainome abundance scans (Beltran et al. 2025)
